Where do the numbers come from? From paper PMC10895674.

# methodNotes: Pharmacokinetics IV and PO
# Design: species or system Rat
# assaySetup: in vivo; Rat IV, dose 2 mg/kg
recordedMetric: half-life (min)

compound="CCN(c1cc(-c2cccc(N(C)C(=O)c3cc(C(C)C)c(O)cc3O)c2)cc(C(=O)NCc2c(C)cc(C)[nH]c2=O)c1C)C1CCOCC1 [Compound 7]" recordedmetric=half-life measured=48

----------
# methodNotes: Pharmacokinetics IV and PO
# Design: species or system Rat
# assaySetup: in vivo; Rat PO 20 mg/kg, 2 hr; read-out: Drug Conc. Avg.
recordedMetric: concentration at 2 hr (ng/mL)

molecule="CCN(c1cc(-c2cccc(N(C)C(=O)c3cc(C(C)C)c(O)cc3O)c2)cc(C(=O)NCc2c(C)cc(C)[nH]c2=O)c1C)C1CCOCC1 [Compound 7]" recordedmetric="concentration at 2 hr" measured=15.3

----------
# methodNotes: Pharmacokinetics IV and PO
# Design: species or system Rat
# assaySetup: in vivo; Rat IV 2 mg/kg, 0.5 hr; read-out: Drug Conc. Avg.
recordedMetric: concentration at 0.5 hr (ng/mL)

structure=CCN(c1cc(-c2cccc(N(C)C(=O)c3cc(C(C)C)c(O)cc3O)c2)cc(C(=O)NCc2c(C)cc(C)[nH]c2=O)c1C)C1CCOCC1 unitssymbol=ng/mL measured=218

----------
# methodNotes: Pharmacokinetics IV and PO
# Design: species or system Rat
# assaySetup: in vivo; Rat PO, dose 20 mg/kg
recordedMetric: Cmax (ng/mL)

structure=CCN(c1cc(-c2cccc(N(C)C(=O)c3cc(C(C)C)c(O)cc3O)c2)cc(C(=O)NCc2c(C)cc(C)[nH]c2=O)c1C)C1CCOCC1 recordedmetric=Cmax unitssymbol=ng/mL measured=23.8

----------
# methodNotes: Pharmacokinetics IV and PO
# Parameters: species or system Rat
# assaySetup: in vivo; Rat IV, dose 2 mg/kg
# Method: Table S1: Pharmacokinetic data of compound 7 Rat IV (dose: 2 mg/kg) Rat PO (dose: 20 mg/kg) T1/2 CL Vss AUC(0-inf) T1/2 Cmax Tmax AUC(0-inf) F (hr) (ml/min/kg) (l/kg) (ng/mL*hr) (hr) (ng/ml) (hr) (ng/mL*hr) (%) Sample Time (hr) Avg. S.D.
recordedMetric: AUC(0-inf) (ng·h/mL)

structure=CCN(c1cc(-c2cccc(N(C)C(=O)c3cc(C(C)C)c(O)cc3O)c2)cc(C(=O)NCc2c(C)cc(C)[nH]c2=O)c1C)C1CCOCC1 unitssymbol=ng·h/mL measured=470

----------
# assayTarget: UniProtKB Q15910
# Sequence (Q15910 whole entry): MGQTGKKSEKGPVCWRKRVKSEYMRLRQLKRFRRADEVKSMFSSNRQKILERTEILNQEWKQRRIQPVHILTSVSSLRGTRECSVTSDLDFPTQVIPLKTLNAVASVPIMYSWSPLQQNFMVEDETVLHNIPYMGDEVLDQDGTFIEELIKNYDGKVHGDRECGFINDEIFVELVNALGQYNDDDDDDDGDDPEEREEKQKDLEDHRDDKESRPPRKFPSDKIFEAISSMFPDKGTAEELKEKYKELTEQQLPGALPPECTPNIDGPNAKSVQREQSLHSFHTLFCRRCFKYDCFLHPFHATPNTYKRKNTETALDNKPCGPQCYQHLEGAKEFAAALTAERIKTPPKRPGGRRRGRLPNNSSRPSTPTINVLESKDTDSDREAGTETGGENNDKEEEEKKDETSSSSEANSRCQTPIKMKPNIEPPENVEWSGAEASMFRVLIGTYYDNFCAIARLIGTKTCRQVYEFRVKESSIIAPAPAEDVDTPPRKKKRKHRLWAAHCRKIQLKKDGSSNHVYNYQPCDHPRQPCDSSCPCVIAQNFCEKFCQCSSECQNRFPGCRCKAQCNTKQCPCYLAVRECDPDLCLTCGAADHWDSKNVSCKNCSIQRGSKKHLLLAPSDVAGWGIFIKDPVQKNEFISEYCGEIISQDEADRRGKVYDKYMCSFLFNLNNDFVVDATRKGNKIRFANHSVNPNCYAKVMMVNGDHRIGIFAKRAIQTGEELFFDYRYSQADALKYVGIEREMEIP
# Sequence (O75530 whole entry partner): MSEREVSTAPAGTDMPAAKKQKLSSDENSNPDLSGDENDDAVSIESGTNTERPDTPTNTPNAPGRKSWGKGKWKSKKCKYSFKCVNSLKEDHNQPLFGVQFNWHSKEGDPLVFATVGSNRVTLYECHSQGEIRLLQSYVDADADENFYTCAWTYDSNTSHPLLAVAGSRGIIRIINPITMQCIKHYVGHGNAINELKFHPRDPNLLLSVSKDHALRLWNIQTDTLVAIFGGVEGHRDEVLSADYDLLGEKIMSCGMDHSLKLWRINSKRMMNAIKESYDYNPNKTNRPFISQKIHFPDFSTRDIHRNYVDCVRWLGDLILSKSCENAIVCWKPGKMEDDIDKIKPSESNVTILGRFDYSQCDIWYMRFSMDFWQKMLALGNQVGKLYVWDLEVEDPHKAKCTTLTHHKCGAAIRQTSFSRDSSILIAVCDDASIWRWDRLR
# Sequence (Q15022 whole entry partner): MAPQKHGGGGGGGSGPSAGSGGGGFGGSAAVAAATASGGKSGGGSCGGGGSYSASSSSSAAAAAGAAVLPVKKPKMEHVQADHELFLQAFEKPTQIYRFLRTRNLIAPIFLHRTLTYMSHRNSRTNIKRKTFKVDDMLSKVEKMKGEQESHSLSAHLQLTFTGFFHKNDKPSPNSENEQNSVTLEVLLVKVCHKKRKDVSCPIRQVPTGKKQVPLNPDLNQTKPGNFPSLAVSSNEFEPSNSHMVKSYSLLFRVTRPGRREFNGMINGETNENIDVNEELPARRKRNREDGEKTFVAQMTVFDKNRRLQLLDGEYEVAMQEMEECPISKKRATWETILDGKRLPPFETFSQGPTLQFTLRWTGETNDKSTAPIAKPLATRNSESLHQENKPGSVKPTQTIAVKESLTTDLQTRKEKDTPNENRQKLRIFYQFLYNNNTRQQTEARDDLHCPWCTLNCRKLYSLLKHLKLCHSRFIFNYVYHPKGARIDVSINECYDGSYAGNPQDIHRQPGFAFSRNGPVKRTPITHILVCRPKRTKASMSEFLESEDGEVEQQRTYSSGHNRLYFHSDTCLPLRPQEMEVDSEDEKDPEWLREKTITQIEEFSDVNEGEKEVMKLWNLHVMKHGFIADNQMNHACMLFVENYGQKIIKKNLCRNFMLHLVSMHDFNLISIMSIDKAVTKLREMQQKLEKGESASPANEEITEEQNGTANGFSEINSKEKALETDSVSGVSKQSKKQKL
# Sequence (Q09028 whole entry partner): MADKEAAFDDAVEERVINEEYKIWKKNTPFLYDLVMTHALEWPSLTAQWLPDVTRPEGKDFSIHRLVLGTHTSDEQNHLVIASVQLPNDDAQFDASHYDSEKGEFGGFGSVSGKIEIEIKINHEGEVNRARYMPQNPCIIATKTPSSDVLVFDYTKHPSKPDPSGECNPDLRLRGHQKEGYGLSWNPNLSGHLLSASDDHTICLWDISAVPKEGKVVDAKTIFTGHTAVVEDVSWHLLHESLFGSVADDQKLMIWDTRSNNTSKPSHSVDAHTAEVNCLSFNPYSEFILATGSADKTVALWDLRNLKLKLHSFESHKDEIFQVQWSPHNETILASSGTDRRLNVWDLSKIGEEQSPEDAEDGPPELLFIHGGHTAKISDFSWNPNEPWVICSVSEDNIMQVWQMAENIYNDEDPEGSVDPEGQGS
# Sequence (Q6ZN18 whole entry partner): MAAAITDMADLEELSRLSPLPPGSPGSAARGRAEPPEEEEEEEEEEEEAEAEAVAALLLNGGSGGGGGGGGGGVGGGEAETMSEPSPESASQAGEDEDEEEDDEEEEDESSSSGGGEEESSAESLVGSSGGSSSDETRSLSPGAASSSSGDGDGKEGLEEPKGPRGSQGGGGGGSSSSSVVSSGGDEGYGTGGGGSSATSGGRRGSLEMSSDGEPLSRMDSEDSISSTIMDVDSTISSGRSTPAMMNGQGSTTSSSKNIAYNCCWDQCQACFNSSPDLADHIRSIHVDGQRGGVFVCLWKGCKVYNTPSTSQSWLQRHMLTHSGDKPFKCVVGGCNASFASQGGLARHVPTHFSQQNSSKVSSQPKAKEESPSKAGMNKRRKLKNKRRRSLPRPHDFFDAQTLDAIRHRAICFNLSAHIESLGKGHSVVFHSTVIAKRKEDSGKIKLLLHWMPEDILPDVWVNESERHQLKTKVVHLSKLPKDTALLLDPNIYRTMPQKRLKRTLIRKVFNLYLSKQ
pIC50: −log10 of the molar value.
recordedMetric: pIC50

compound="CCN(c1cc(-c2ccc(N(C)C(=O)c3cc(C(C)C)c(O)cc3O)cc2)cc(C(=O)NCc2c(C)cc(C)[nH]c2=O)c1C)C1CCOCC1 [Compound 3]" assaytarget="UniProtKB Q15910" recordedmetric=pIC50 measured=8.14
compound="CCN(c1cc(-c2cccc(NC(=O)c3cc(C(C)C)c(O)cc3O)c2)cc(C(=O)NCc2c(C)cc(C)[nH]c2=O)c1C)C1CCOCC1 [Compound 2]" assaytarget="UniProtKB Q15910" recordedmetric=pIC50 measured=8.69
compound="CCN(c1cc(-c2cccc(N(C)C(=O)c3cc(C(C)C)c(O)cc3O)c2)cc(C(=O)NCc2c(C)cc(C)[nH]c2=O)c1C)C1CCOCC1 [Compound 7]" assaytarget="UniProtKB Q15910" recordedmetric=pIC50 measured=8.20
compound="CCCN(C(=O)c1cc(C(C)C)c(O)cc1O)c1cccc(-c2cc(C(=O)NCc3c(C)cc(C)[nH]c3=O)c(C)c(N(CC)C3CCOCC3)c2)c1 [Compound 9]" assaytarget="UniProtKB Q15910" recordedmetric=pIC50 measured=7.40
